Experiment: p53 small molecule agonists, cell-based qHTS assay: qHTS cell viability counter screen (AID 1963581); also: % is scaled to controls: 0 for no effect and ±100 for the full control effect; nearly all actives have a fitted effect of over 45% in size
Conditions: p53RE-bla HCT-116 viability, ATP luminescence, 16 h; series mostly up to 66 µM
Inconclusive results are not listed. The source made the active and inactive calls. Calls follow the shape of the full dose curve.
readoutLabel: activity change, negative = cytotoxicity

>>> measurement("CC(C)c1ccc2oc3nc(N)c(C(=O)O)cc3c(=O)c2c1")
"inactive"
>>> measurement("CCCCOC(=O)[C@@H](C)Oc1ccc(Oc2ccc(C(F)(F)F)cn2)cc1")
"inactive"
>>> measurement("O=C(C1CCCCC1)N1CC(=O)N2CCCc3ccccc3C2C1 (stereo unspecified)")
"inactive"
>>> measurement("COC(=O)C1CC(=O)C(C(=O)OC)CC1=O (stereo unspecified)")
"-4.07% [at 5.99 µM] (inactive)"
>>> measurement("CCCCCCCCN(C)CCCCCCCC")
"inactive"
>>> measurement("CCOC(=O)Cn1cccc1-c1nc(-c2ccc(OC)cc2)c(-c2ccc(OC)cc2)s1")
"inactive"
